System: Capnocytophaga gingivalis
Type: biochemical
test_settings: strain ATCC 33624; β-naphthylamine liberated after 60 minutes, 37° C.
Peptide text beside a SMILES is read from it. * marks the point of attachment. βNA = c1ccc2cc(N*)ccc2c1
# note: boundary value 60 nmol maps to false; Aminopeptidase activity below it maps to true

# input Lab log: compare recorded Aminopeptidase activity with 60 nmol; is it strictly lower for CC(C)C[C@H](NC(=O)[C@@H]1CCCN1C(=O)CN)C(=O)Nc1ccc2ccccc2c1 [Gly-Pro-Leu] (H-Gly-Pro-Leu-βNA) ?
# output true

# input What about this compound? CSCCC(N)C(=O)Nc1ccc2ccccc2c1 (racemic)
# output false

# input What about this compound? C[C@H](N)C(=O)N[C@@H](C)C(=O)N[C@@H](Cc1ccccc1)C(=O)Nc1ccc2ccccc2c1 [Ala-Ala-Phe] (H-Ala-Ala-Phe-βNA)
# output false

# input What about this compound? NC(=O)[C@@H](N)CCC(=O)O [α-Glu, α -glutamine]
# output true

# input What about this compound? Cl.N=C(N)NCCC[C@H](NC(=O)CNC(=O)CNC(=O)OCc1ccccc1)C(=O)Nc1ccc2ccccc2c1 [N-CBz-Gly-Gly-Arg]
# output true

Further cases:
# input Lab log: compare recorded Aminopeptidase activity with 60 nmol; is it strictly lower for CC(C)C[C@H](N)C(=O)NCC(=O)O [Leu-Gly, Leucyl-glycine] (H-Leu-Gly-OH) ?
# output true

Reference source: patent US4994376A
